From: ChEMBL document CHEMBL2029219

- Target of assay: Cyclin-dependent kinase 5/CDK5 activator 1 (Homo sapiens, UniProt Q00535)
- Sequence (Q00535 whole entry): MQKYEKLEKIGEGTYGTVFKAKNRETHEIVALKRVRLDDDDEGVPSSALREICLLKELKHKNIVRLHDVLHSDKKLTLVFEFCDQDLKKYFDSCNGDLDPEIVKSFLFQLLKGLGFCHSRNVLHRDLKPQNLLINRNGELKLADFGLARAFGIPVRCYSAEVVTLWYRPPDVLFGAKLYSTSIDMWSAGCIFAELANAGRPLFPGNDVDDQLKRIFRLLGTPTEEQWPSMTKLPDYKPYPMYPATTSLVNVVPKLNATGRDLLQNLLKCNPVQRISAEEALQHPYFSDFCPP
- Sequence (Q15078 whole entry, further chain): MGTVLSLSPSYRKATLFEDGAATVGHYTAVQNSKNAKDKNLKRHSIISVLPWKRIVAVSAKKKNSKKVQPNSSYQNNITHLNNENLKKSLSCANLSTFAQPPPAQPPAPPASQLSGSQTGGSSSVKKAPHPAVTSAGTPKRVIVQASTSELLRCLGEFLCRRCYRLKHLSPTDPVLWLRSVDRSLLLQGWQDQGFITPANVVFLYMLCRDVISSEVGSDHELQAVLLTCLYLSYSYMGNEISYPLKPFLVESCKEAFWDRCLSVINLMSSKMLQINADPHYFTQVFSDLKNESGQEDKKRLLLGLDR
- Test method notes: Inhibition of human recombinant CDK5/p25 using [gamma 33P]ATP after 30 mins by scintillation counting
pIC50: −log10 of the molar value.
Values of pIC50 greater than or equal to 6 map to class 1; values below map to class 0.

Worked set:
CCCCC[C@@H](NC)c1c(O)cc(O)c2c(=O)cc(-c3ccccc3)oc12 = class 1
O=c1cc(-c2ccccc2)oc2c(C3CCCCN3)c(O)cc(O)c12 (racemic) = class 0
CN1CCCC1c1c(O)cc(O)c2c(=O)cc(-c3ccccc3)oc12 (racemic) = class 1
COc1cc(O)c(C2CCCCN2)c2oc(-c3ccccc3)cc(=O)c12 (stereo not drawn) = class 0
CN1CCCC[C@H]1c1c(O)cc(O)c2c(=O)cc(-c3ccccc3)oc12 = class 1

Next up:
-- ask I'd appreciate it if you could say whether CN1CCCCC1c1c(O)cc(O)c2c(=O)cc(-c3ccccc3)oc12 (racemic) has pIC50 at least equal to 6.
-- reply class 0
